assay: Ex vivo biodistribution in PC-3 tumor-bearing mice; settings: male, NRG, mouse, lungs, iv, total radioactivity, Biodistribution Lungs Mean, 1 h post-injection, mice bearing PC-3 tumor xenografts, n = 4
Numbered stars: 1 amine (or outer) side, 2 acyl side, 3 side chain; on linkers, the order of the positions; unused ones are H or OH. Square brackets hold non-standard residues; d marks the D form. Peptide text beside a SMILES is read from it. * marks the point of attachment. DOTA = O=C(O)CN1CCN(CC(=O)O)CCN(CC(=O)*)CCN(CC(=O)O)CC1; Leuψ(CH2N)ThzNH2 = CC(C)C[C@@H](CN1CSC[C@H]1C(N)=O)N*; X1 = O=C(CN1CCC(N[*:1])CC1)[*:2]
PROPERTY: tissue uptake at 1 h (%ID/g)
The figure you give is taken to be in %ID/g; do not add the unit.

COMPOUND	UNIT OF MEASURE	tissue uptake at 1 h
CC(C)C[C@H](NC(=O)[C@H](Cc1c[nH]cn1)NC(=O)CNC(=O)[C@@H](NC(=O)[C@H](C)NC(=O)[C@H](Cc1c[nH]c2ccccc12)NC(=O)[C@H](CCC(N)=O)NC(=O)[C@@H](Cc1ccccc1)NC(=O)CN1CCC(NC(=O)CN2CCN(CC(=O)O)CCN(CC(=O)O)CCN(CC(=O)O)CC2)CC1)C(C)C)C(=O)N1CSC[C@H]1C(N)=O [^68Ga-LW01025, metal not drawn]	%ID/g	0.34
CC(C)C[C@@H](CN1CSC[C@H]1C(N)=O)NC(=O)[C@H](Cc1c[nH]cn1)NC(=O)CNC(=O)[C@@H](NC(=O)[C@H](C)NC(=O)[C@H](Cc1c[nH]c2ccccc12)NC(=O)[C@H](Cc1c[nH]cn1)NC(=O)[C@@H](Cc1ccccc1)NC(=O)CN1CCC(NC(=O)CN2CCN(CC(=O)O)CCN(CC(=O)O)CCN(CC(=O)O)CC2)CC1)C(C)C [^68Ga-LW01102, metal not drawn] ({DOTA}-[X1][dF]HWAVGH-{Leuψ(CH2N)ThzNH2})	%ID/g	1.55

[ask] Query (compound): CC(C)C[C@@H](CN1CCC[C@H]1C(N)=O)NC(=O)[C@H](Cc1c[nH]cn1)NC(=O)CN(C)C(=O)[C@@H](NC(=O)[C@H](C)NC(=O)[C@H](Cc1c[nH]c2ccccc12)NC(=O)[C@H](CCC(N)=O)NC(=O)[C@@H](Cc1ccccc1)NC(=O)CN1CCC(NC(=O)CN2CCN(CC(=O)O)CCN(CC(=O)O)CCN(CC(=O)O)CC2)CC1)C(C)C [^68Ga-LW02045, metal not drawn] ; field requested: tissue uptake at 1 h
[reply] 1.08
